Below, each entry is listed alongside its reported pIC50.
system under test: PDGF-R (platelet derived growth factor receptor) beta subunit kinase domain (Homo sapiens)
Construct: nucleotides 1874-3507 of the human PDGF-R beta subunit kinase domain; polyhistidine (N)
Sequence (P09619 564-1106): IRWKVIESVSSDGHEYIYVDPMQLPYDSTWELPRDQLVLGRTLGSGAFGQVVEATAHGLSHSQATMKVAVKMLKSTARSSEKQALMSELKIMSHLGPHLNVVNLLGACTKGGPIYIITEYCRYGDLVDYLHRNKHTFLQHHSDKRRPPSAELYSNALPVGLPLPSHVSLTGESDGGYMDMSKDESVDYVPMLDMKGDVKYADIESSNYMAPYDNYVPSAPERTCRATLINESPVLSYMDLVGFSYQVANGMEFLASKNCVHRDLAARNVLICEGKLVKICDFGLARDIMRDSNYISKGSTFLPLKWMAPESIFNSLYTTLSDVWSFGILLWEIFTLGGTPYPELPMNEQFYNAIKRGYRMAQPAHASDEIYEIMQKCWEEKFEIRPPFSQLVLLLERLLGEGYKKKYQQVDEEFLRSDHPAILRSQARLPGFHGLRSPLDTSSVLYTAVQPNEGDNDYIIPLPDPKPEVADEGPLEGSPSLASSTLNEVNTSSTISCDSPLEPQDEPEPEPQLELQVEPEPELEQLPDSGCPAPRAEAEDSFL
measurement description: Kinase Selectivity Assay PDGF-R
Format: biochemical
experimental conditions: Kinase Selectivity, Tables 2a-2k; read-out: PDGF-R kinase IC50
pIC50: −log10 of the molar value.
reported endpoint: pIC50

1. Cc1ccc(F)c(C(=O)n2nc(N)nc2Nc2ccc(S(N)(=O)=O)cc2)c1F ... < 4.00
2. Nc1nc(Nc2ccc(N3CCNC3=O)cc2)nn1C(=O)c1c(F)cccc1F ... < 5.00
3. Nc1nc(Nc2ccc(S(=O)(=O)Nc3ccccn3)cc2)nn1C(=O)c1c(F)cccc1F ... < 4.00

###

Below, each entry is listed alongside its reported pIC50.
system under test: VEGF-R (vascular endothelial growth factor receptor-2) (Rattus norvegicus)
Construct: polyhistidine (6xHIS) (N)
Sequence (O08775 786-1343): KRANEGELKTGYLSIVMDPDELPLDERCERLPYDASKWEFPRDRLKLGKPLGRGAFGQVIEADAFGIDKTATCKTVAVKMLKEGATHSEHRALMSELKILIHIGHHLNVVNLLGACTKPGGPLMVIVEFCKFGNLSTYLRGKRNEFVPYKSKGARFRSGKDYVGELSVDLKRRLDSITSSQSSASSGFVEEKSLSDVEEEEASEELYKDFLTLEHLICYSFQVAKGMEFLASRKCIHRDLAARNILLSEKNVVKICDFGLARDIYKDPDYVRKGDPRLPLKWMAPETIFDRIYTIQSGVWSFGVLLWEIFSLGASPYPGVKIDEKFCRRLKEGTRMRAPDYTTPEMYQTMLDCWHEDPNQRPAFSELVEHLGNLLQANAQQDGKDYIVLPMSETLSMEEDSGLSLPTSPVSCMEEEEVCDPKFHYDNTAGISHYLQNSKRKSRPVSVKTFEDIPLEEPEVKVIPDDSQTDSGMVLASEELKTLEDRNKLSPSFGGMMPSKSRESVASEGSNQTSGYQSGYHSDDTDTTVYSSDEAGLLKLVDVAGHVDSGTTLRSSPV
measurement description: VEGF-R Screening Assay
Assay type: biochemical
experimental conditions: Kinase Selectivity, Tables 2a-2k; read-out: VEGF-R IC50
pIC50: −log10 of the molar value.
reported endpoint: pIC50

1. Nc1nc(Nc2cccc(Cl)c2)n(C(=O)c2ccccc2)n1 ... < 4.00
2. Nc1nc(Nc2cccc(Cl)c2)n(C(=O)c2c(F)cccc2F)n1 ... < 4.00
3. Nc1nc(Nc2ccccc2)n(C(=O)c2ccccc2)n1 ... < 4.00

The measured values listed here are drawn from patent US6924302B2.
